Where these numbers come from: patent US9238034B2

Exercise: for every item that follows, state its recorded inhibition at 25 µM.
- target under test: Fn14-TWEAK binding (Homo sapiens, UniProt Q9NP84)
- Construct: the human Fc fragment-tagged Fn14 extracellular domain (R&D Systems) was captured; purchased R&D Systems (Fn14-Fc); Peprotech (recombinant TWEAK)
- test summary: Double sandwich ELISA small molecule screening of TWEAK binding to captured Fn14-Fc
- conditions used: Table 5, 25 μM, replicate 2; read-out: % Reduction in TWEAK Binding, Data 2
Don't forget the unit after the number, please.

Cc1cc(NC(=O)CSc2ccccc2)ccc1Cl = 4.93%
CCOCCCNC(=O)C(=O)NCc1n[nH]c(=O)c2ccccc12 = 14.1%
CCC(=O)Nc1ccccc1-c1nnc(SC(CC)C(=O)Nc2cc(OC)cc(OC)c2)[nH]c1=O (centres unmarked) = 12.2%

Report inhibition at 25 µM for every entry below.
1. CCCSc1nnc(-c2ccccc2NC(=O)CC)c(O)n1
2. CCC(=O)Nc1ccccc1-c1nnc(SCC(=O)Nc2cc(C)ccc2C)[nH]c1=O

### Response
1. 13.8%
2. 11.5%

====

- target under test: Fn14-TWEAK binding (Homo sapiens)
- Construct: the human Fc fragment-tagged Fn14 extracellular domain (R&D Systems) was captured; purchased R&D Systems (Fn14-Fc); Peprotech (recombinant TWEAK)
- test summary: Double sandwich ELISA small molecule screening of TWEAK binding to captured Fn14-Fc
- conditions used: Table 3, first round of screening, 25 μM, average of duplicate; read-out: % Reduction in TWEAK Binding, Average
measured parameter: inhibition at 25 µM (%)
One number for each entry, in %.

Here's what some known entries look like.
O=C(Cc1c[nH]c2ccccc12)Nc1ccc2oc(=O)ccc2c1 [Compound D715-0817] = 10.3
O=C(O)C[C@@H]1NC(=O)c2ccccc2NC1=O [Compound D715-2673] = 14.5
CCC(=O)Nc1ccccc1-c1nnc(SCC(=O)Nc2cc(C)ccc2C)[nH]c1=O [Compound F151-0458] = 11.1
O=C(NCc1ccccc1)C(=O)NCc1n[nH]c(=O)c2ccccc12 [Compound F044-0075] = 13
O=C(CSc1nc2c(cnn2-c2ccccc2)c(=O)[nH]1)NCc1ccc(F)cc1 [Compound G873-0031] = 14.2

Report inhibition at 25 µM for every entry below.
1. O=C(CSc1nc2c(cnn2-c2ccccc2)c(=O)[nH]1)NCc1ccc2c(c1)OCO2 [Compound G873-0032]
2. CCOCCCNC(=O)C(=O)NCc1n[nH]c(=O)c2ccccc12 [Compound F044-0058]
3. CCC(=O)Nc1ccccc1-c1nnc(SC(CC)C(=O)Nc2cc(OC)cc(OC)c2)[nH]c1=O (centres unmarked) [Compound F151-0435]

### Response
1: 20.4; 2: 12; 3: 15.5

====

- target under test: Fn14 (Homo sapiens)
- Construct: the human Fc fragment-tagged Fn14 extracellular domain (R&D Systems) was captured
- Sequence (Q9NP84 28-80 limits assumed): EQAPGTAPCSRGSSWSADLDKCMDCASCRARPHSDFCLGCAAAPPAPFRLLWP
- test summary: Surface Plasmon Resonance assay, Fn14-Fc sensor surface
- conditions used: Fn14 surface, SPR, 25 degrees Celsius
measured parameter: pKd
One number for each entry, as −log10 of the molar value.

### Prompt Please report the measured pKd for O=C(c1cn(-c2cccc(Cl)c2)nn1)N1CCSCC1 tested on Fn14 (Homo sapiens).
### Response 5.15

====

- target under test: Fn14-TWEAK binding (Homo sapiens)
- Construct: the human Fc fragment-tagged Fn14 extracellular domain (R&D Systems) was captured; purchased R&D Systems (Fn14-Fc); Peprotech (recombinant TWEAK)
- test summary: Double sandwich ELISA small molecule screening of TWEAK binding to captured Fn14-Fc
- conditions used: Table 5, 25 μM, replicate 2; read-out: % Reduction in TWEAK Binding, Data 2
Exercise: for every item that follows, state its recorded inhibition at 25 µM.
Give bare numbers, in %.

Here's what some known entries look like.
CCC(=O)Nc1ccccc1-c1nnc(SCC(=O)Nc2ccc(OC)cc2)[nH]c1=O = 5.86
O=C(NCc1ccc(F)cc1)C(=O)NCc1n[nH]c(=O)c2ccccc12 = 10.4
NC(=O)C1CCCN(c2nc3c(-c4ccccc4)csc3c(=O)[nH]2)C1 (stereo not shown) = 7.41

Please find the next molecule below.
### Prompt Given O=C(CSc1nnc(-c2ccccc2)c(-c2ccccc2)n1)Nc1cccc(Cl)c1 , respond with its inhibition at 25 µM.
### Response 10.1
